Each recorded value in this set is attributed to patent US20250250357A1.

- study_target: T1, human MSLN-R2-his protein (human, UniProt Q13421 391-486)
- T1 construct: Region 2 of human mesothelin, made in HEK293E cells, His-tagged; also called human MSLN-R2 protein; hMSLN-R2-his; not shown: His tag
- T1 sequence (Q13421 other isoform, or with tags, fused parts or gaps): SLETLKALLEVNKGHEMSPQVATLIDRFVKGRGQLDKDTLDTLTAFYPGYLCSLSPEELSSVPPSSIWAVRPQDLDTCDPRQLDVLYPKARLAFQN
- experimental_protocol: ELISA on coated MSLN-R2; antibody 0.1 nM
outcome_measure: OD450 (OD450)
Give the value, in units of OD450, as a plain number.

# binder, outcome_measure, val
rows = [
    ("S009-F8-31.22 (antibody, human IgG1, kappa, V domains shown) VH: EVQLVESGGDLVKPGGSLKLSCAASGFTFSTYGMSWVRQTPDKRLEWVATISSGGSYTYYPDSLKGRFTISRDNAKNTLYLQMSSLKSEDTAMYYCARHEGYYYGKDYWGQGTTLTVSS VL: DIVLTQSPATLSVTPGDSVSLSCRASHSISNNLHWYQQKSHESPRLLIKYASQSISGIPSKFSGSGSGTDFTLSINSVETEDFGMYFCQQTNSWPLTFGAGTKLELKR", "OD450", 0.05),
]

Field OD450 (entry S009-F8-36.12 (antibody, human IgG1, kappa, V domains shown) VH: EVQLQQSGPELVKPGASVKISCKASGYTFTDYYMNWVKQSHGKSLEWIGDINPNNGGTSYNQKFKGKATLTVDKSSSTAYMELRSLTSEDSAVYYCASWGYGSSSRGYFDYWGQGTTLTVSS VL: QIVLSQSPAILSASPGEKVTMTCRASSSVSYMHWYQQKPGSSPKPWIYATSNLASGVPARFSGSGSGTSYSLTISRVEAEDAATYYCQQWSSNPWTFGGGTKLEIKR ) reads 0.03

Field OD450 (entry S009-F8-24.14 (antibody, human IgG1, kappa, V domains shown) VH: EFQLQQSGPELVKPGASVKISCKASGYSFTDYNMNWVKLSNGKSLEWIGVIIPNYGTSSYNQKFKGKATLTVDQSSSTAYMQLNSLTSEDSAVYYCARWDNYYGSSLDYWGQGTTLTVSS VL: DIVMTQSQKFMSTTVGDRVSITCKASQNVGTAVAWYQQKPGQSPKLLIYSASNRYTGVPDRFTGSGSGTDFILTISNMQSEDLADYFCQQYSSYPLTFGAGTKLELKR ) reads 0.04
